# System: NCI-H322M lung
# PROTOCOL: NCI-60 one-dose screen, 48 h
# TEST_CONTEXT: 10 µM
About 83,000 compounds went through this panel and 20% of them were active in at least one assay; those are over-represented in the sample as a whole. The source made the active and inactive calls. The calls were made as follows: active = growth percent below 10; inactive = the rest.
Outcome codes: active, inactive

{"columns": ["COMPOUND", "CATEGORY"],
 "data": [
  ["CC(C)(Cl)CCC1=C(Cl)C(=O)c2ccccc2C1=O", "inactive"],
  ["CC/C(=C(/c1ccc(OCCN(C)C)cc1)c1ccc(OC(=O)CCCCC(=O)c2c(C)[nH]c(/C=C3\\N=C(c4ccc[nH]4)C=C3OC)c2C)cc1)c1ccccc1", "inactive"],
  ["COc1cc(Cl)cc(-c2nn(-c3cccc(NC(=O)Nc4ccc(Cl)c(Cl)c4)c3)cc2-c2ccncc2)c1", "inactive"],
  ["O=C(Nc1ccccc1)Nc1cccc(-n2cc(-c3ccncc3)c(-c3ccc(O)c(Cl)c3)n2)c1", "inactive"],
  ["CCC1(C(C)C)NC(=O)NC1=O (configuration not stated)", "inactive"],
  ["COc1ccc2c(c1)-c1c(c3cc(OC)ccc3n(CCN(C)C)c1=O)C2=O", "active"],
  ["CN1CCCNc2c(c(=O)c2=O)NCCCN(C)CCCNc2c(c(=O)c2=O)NCCCN(C)CCCNc2c(c(=O)c2=O)NCCCN(C)CCCNc2c(c(=O)c2=O)NCCCN(C)CCCNc2c(c(=O)c2=O)NCCCN(C)CCCNc2c(c(=O)c2=O)NCCCN(C)CCCNc2c(c(=O)c2=O)NCCC1", "inactive"]
]}

====

# System: SN12C renal
# PROTOCOL: NCI-60 one-dose screen, 48 h (100 = growth as untreated, 0 = no growth, -100 = all killed)
# TEST_CONTEXT: 10 µM
The panel holds about 83,000 compounds, 20% with a hit somewhere; the sample as a whole holds those more often. Activity calls are given as the source filed them. Rule for the calls: active = growth percent below 10; inactive = the rest.

{"columns": ["QUERY_SMILES", "SYSTEM", "growth"],
 "data": [
  ["COc1ccc(/C(=C2/O[C@@H]([C@H]3COC(C)(C)O3)[C@H]3OC(C)(C)O[C@@H]23)c2cc(OC)c(OC)c(OC)c2)cc1O", "SN12C renal", "84.5% (inactive)"],
  ["COc1ccc(Nc2ncnc3c2c(SC)nn3-c2ccccc2)cc1", "SN12C renal", "83.8% (inactive)"],
  ["CC1(C)CCC(=NNC(N)=S)CC1", "SN12C renal", "105% (inactive)"],
  ["COc1ccc(Oc2nc(NC3CCCC3)nc(Sc3ccc(OC)cc3)n2)cc1", "SN12C renal", "78.9% (inactive)"],
  ["C/C(N)=C(\\C#N)C(=O)c1ccccc1", "SN12C renal", "106% (inactive)"]
]}

====

Quick reference: growth of the listed items.
# System: NCI-H23 lung
# PROTOCOL: NCI-60 one-dose screen, 48 h (100 = growth as untreated, 0 = no growth, -100 = all killed)
# TEST_CONTEXT: 10 µM
This is part of a sample that, as a whole, favours compounds with a hit. Of some 83,000 tested, about 20% had one in any assay.

{"columns": ["QUERY_SMILES", "SYSTEM", "growth, %"],
 "data": [
  ["O=C(Nc1nc2ccc(F)cc2s1)c1cc(-c2ccc(F)cc2)n2nc(-c3ccccc3)cc2n1", "NCI-H23 lung", 79.7],
  ["O=C1c2ccc3c4c(ccc(c24)C(=O)N1CCNCc1ccccc1)C(=O)N(CCNCc1ccccc1)C3=O", "NCI-H23 lung", -49.4],
  ["Nc1nc(N)c2c(ccc3nccc32)[nH]1", "NCI-H23 lung", 50],
  ["COc1ccc(-c2nn(-c3cccc(NC(=O)c4cccc(C(F)(F)F)c4)c3)cc2-c2ccncc2)cc1Cl", "NCI-H23 lung", 52],
  ["CCN1Cc2c(/C=C/c3ccccc3)nc3ccc(OC)cc3c2N(c2cccc(Cl)c2)C1", "NCI-H23 lung", 59.1]
]}
